tested on: TK-10 renal; assay: NCI-60 one-dose screen, 48 h (100 = growth as untreated, 0 = no growth, -100 = all killed); conditions: 10 µM unless noted
This is part of a sample that, as a whole, favours compounds with a hit. Of some 83,000 tested, about 20% had one in any assay.
measured_attribute: growth (%)

# molecule, reported_measurement
records = [
    ("O=C(Oc1c(Cl)c(Cl)c(Cl)c(Cl)c1Cl)C1CCCN1C(=O)OCc1ccccc1 (stereo not given)", 67.3),
    ("COc1ccc(/C=C(/C(=O)N2CCN(c3ccccc3)CC2)c2cc(OC)c(OC)c(OC)c2)cc1N", 63.5),
    ("NS(=O)(=O)c1ccc(N2N=C(c3ccc(Br)cc3)CC2c2cn(-c3ccccc3)nc2-c2ccc(Cl)cc2)cc1 (stereo not given)", 112),
    ("COc1cc(Nc2ccnc3ccc(Br)cc23)cc(OC)c1OC", 56.8),
    ("O=C(C=P(c1ccccc1)(c1ccccc1)c1ccccc1)CCl", -46.2),
    ("CCCCCCCCCCC(C(O)c1ccccc1)N1CCCCC1 (stereo not given)", 76.8),
    ("CC(=O)[C@H]1CC[C@H]2[C@@H]3CC[C@H]4CC=CC[C@]4(C)[C@H]3CC[C@]12C", 85.9),
    ("N#Cc1c(N)c(C(=O)c2ccc3c(c2)OCCO3)n2c1CCCC2", 39.9),
    ("COc1cc(Cn2c(-c3ccccc3)cc3c2-c2oncc2CC3)cc(OC)c1OC", 47.1),
    ("O=C1C2=C(C(=O)c3c(O)ccc(O)c31)N(c1ccc(N3CCOCC3)nc1)Cc1ccccc1O2", -98.7),
]

====

System: U251 CNS
Experiment: NCI-60 one-dose screen, 48 h
Details: 10 µM unless noted
Protocol: Growth inhibition of the U251 human tumor cell line is measured as a screen for anti-cancer activity. Cells are grown in 96 well plates and exposed to the test compound for 48 hours. Compounds are tested at a single concentration, which is 10^-5 M for most compounds. The reported endpoint is percent growth (GI% or GIPRCNT), where numbers from 0 - 100% represent growth inhibition, and numbers from -100% - 0 represent cell death. For example, a value of 40 represents 60% growth inhibition. […]
Compounds without any hit were thinned out: in the full panel of roughly 83,000, 20% have a hit. Calls of active or inactive are those of the source. Rule for the calls: active = growth percent below 10; inactive = the rest.
Possible outcomes: active, inactive

# molecule, cat
rows = [
    ("Cc1cc(C)c2c(NC(=O)Nc3ccc(Cl)c(Cl)c3)n[nH]c2n1", "inactive"),
    ("CCOC(=O)c1sc2nc(-c3cc4ccccc4o3)cc(-c3ccc(Cl)cc3)c2c1N", "inactive"),
    ("OC(c1cc2cc(Cl)ccc2c2cc(C(F)(F)F)ccc12)C1CCCCN1 (stereo unspecified)", "active"),
    ("CCCN(CCC)CC(O)COc1ccccc1C(=O)Nc1ccccc1 (stereo unspecified)", "inactive"),
    ("O=C(CS)OCC(COC(=O)CS)(COC(=O)CS)COC(=O)CS", "inactive"),
    ("Nc1ncnc2c1N=C(c1ccc(F)cc1)CC(c1sc(Cl)nc1Cl)N2 (stereo unspecified)", "inactive"),
    ("CCCCNCC(O)c1cc(-c2ccc(C(F)(F)F)cc2)nc(-c2ccc(C(F)(F)F)cc2)c1 (stereo unspecified)", "active"),
    ("CCOC(=O)C1=C(C)NC(SCc2nnc(-c3ccc(Cl)cc3)o2)=NC1c1ccc(Cl)cc1 (stereo unspecified)", "inactive"),
    ("COC(=O)CNS(=O)(=O)c1ccc2c(c1)Cc1cc(S(=O)(=O)NCC(=O)OC)ccc1-2", "inactive"),
    ("COc1cc(C2Nc3ccccc3S2)cc(CN2CCOCC2)c1O (stereo unspecified)", "inactive"),
    ("COc1cc(C2CC(c3ccc(Nc4ccnc5cc(Cl)ccc45)cc3)=NN2c2ccccc2)cc(OC)c1OC (stereo unspecified)", "inactive"),
    ("O=C1C2=C(C(=O)c3c(O)ccc(O)c31)N(c1ccc(N3CCOCC3)nc1)Cc1ccccc1O2", "active"),
    ("CCCCc1n(Cc2ccc3ccccc3n2)cc[n+]1Cc1ccc2ccccc2n1", "inactive"),
    ("COc1cc(NCCCCC(C)N)c2nccc(C)c2c1 (stereo unspecified)", "inactive"),
    ("COc1cc(NC(C)CCCN)c2ncccc2c1Sc1ccc(Cl)cc1 (stereo unspecified)", "inactive"),
    ("C/C(=C\\C(=N\\N=C(N)N)c1ccc(Cl)cc1)c1ccc(Cl)cc1", "active"),
    ("COc1ccc(C2C=C(c3ccc(Cl)cc3)N=C3SC=CN32)cc1 (stereo unspecified)", "inactive"),
    ("Oc1c(-c2cc(C(F)(F)F)[nH]n2)cc(Cl)c(OCc2ccc(Cl)cc2)c1-c1ccc(Cl)c(C(F)(F)F)c1", "active"),
    ("CCCCCCCCNC(C)C(O)c1ccc(SC(C)C)cc1 (stereo unspecified)", "inactive"),
    ("O=C1Nc2ccccc2/C1=C/c1c[nH]c2ccccc12", "inactive"),
    ("CCC1CCc2nc3sc(C(=O)Nc4cccc(F)c4)c(N)c3cc2C1 (stereo unspecified)", "inactive"),
]

====

tested on: SN12C renal; experiment: NCI-60 one-dose screen, 48 h; conditions: 10 µM unless noted
About 83,000 compounds went through this panel and 20% of them were active in at least one assay; those are over-represented in the sample as a whole. Calls of active or inactive are those of the source. Rule for the calls: active = growth percent below 10; inactive = the rest.
Labels: yes (1) (active), no (0) (inactive)

# molecule, cat
rows = [
    ("COC(=O)C1(C)COP(=O)(NC23CC4CC(CC(C4)C2)C3)OC1 (configuration not stated)", "no (0)"),
    ("CCCCn1cnc(-c2cc(-c3ccccc3)cc(C(F)(F)F)c2)n1", "no (0)"),
    ("COc1ccccc1/C=N\\NC(=S)Nc1ccc(F)cc1", "no (0)"),
    ("CCOCC(O)(c1ccc(Cl)cc1)c1ccc(Cl)cc1", "no (0)"),
    ("Cc1ccc(N=CNN=C(N)N)cc1", "no (0)"),
    ("c1ccc2c(Cc3csc4ccccc34)csc2c1", "no (0)"),
    ("C=C(C)c1ccc(/C=N/NC(N)=S)cc1", "no (0)"),
    ("Nc1nc(N)c2cc(Sc3ccc(Cl)cc3)ccc2n1", "no (0)"),
    ("COc1ccc2[nH]c(O)c(/C=c3/ccc4c(c3)N=C(c3ccc(C(F)(F)F)cc3)N=4)c2c1", "no (0)"),
    ("COc1cc(CN2CCO[C@H](COc3cccc(F)c3)C2)ccc1Cl", "no (0)"),
    ("O=S(=O)(NCC[C@@H]1C[C@H]1c1ccc2ccccc2c1)c1ccc(C(F)(F)F)cc1", "no (0)"),
    ("O=C(NNC(=S)Nc1ccccc1)c1ccc(Nc2ncnc3c2cnn3-c2cccc(Br)c2)cc1", "no (0)"),
    ("O=C(CI)NCCNc1cccc2c(S(=O)(=O)O)cccc12", "no (0)"),
    ("CN(C)c1ccc(N2Cc3ccccc3OC3=C2C(=O)c2c(O)ccc(O)c2C3=O)cn1", "yes (1)"),
    ("COc1cc2nccc(Oc3ccc(NC(=O)C4(C(=O)Nc5ccc(F)cc5)CC4)cc3)c2cc1O", "no (0)"),
    ("O=C(/C=C/c1cn(-c2ccccc2)nc1-c1cccc(Nc2ccnc3cc(Cl)ccc23)c1)c1ccc2c(c1)OCO2", "no (0)"),
    ("CC(C)N1CCN(c2ccncc2S(=O)(=O)N2CCN(C)CC2)CC1", "no (0)"),
    ("CC1=C(C(=O)Nc2ccc(F)cc2)C(c2ccc(C)cc2)C2=C(CC(C)(C)CC2=O)N1 (configuration not stated)", "no (0)"),
    ("O=C(CCCCCCc1nc2ccc(Br)cc2[nH]1)NO", "yes (1)"),
    ("CCCCCCCCCCCCCCCCS(=O)(=O)Nc1cc(C(=O)NN)cc(C(=O)NN)c1", "no (0)"),
    ("c1ccc(C2=Nc3ccccc3SC2)cc1", "no (0)"),
    ("O=C(NO)c1ccc(NCc2csc3ccccc23)cc1", "no (0)"),
]

====

tested on: A498 renal; test: NCI-60 one-dose screen, 48 h (100 = growth as untreated, 0 = no growth, -100 = all killed); details: 10 µM unless noted
Compounds without any hit were thinned out: in the full panel of roughly 83,000, 20% have a hit.
hey, just use class 1 if measured growth is less than 70%, otherwise class 0

# molecule, cat
rows = [
    ("COc1cc2c(cc1C)NC(=O)/C2=C\\c1c[nH]c2ccccc12", "class 0"),
    ("O=[N+]([O-])c1cccc(N=C(Nc2cccc([N+](=O)[O-])c2)c2ccccc2)c1", "class 0"),
    ("CC(C)CC(NC(=O)C(CCCN=C(N)N)NC(=O)OCc1ccccc1)C(=O)NC(CNC(=O)/C=C/c1ccccc1)C(C)C (stereo not given)", "class 0"),
    ("COc1ccc2[nH]c(O)c(/C=c3/ccc4c(c3)N=C(c3ccc(F)cc3)N=4)c2c1", "class 0"),
    ("CCN(CC)Cc1cc(Nc2nc(NC3CCC(N(C)C)CC3)c3ccccc3n2)ccc1OC (stereo not given)", "class 0"),
    ("CC1CCN(Cc2ccc(NC(=O)c3cc4ccc5cccnc5c4[nH]3)cc2)CC1", "class 1"),
    ("Cc1cc(NC(=O)C2c3ccccc3C(=O)N(CC(C)C)C2c2cccs2)no1 (stereo not given)", "class 0"),
    ("COc1ccc(-c2nc(-c3cc(OC)cc(OC)c3)[nH]c2-c2ccc(OC)cc2)cc1", "class 1"),
    ("CC(=O)c1c(O)c(C)c(O)c2c1OC1=CC(=O)/C(=C(/C)N)C(=O)C12C (stereo not given)", "class 0"),
    ("CC(C)[C@H](CN)NC[C@H](C)NS(=O)(=O)c1ccc(C(C)(C)C)cc1", "class 0"),
    ("COc1ccc(C(=O)C(CN(C)C)c2ccccc2)cc1 (stereo not given)", "class 1"),
    ("FC1(F)CCN(Cc2c[nH]c3cc(Cl)ccc23)C[C@H]1CCc1ccccc1", "class 0"),
    ("NCCCOc1cc2ccccc2cc1C(=O)NCCCOc1cc2ccccc2cc1C(=O)Nc1ccc(Cl)cc1O", "class 1"),
    ("CCCCNCCC(O)c1cc2ccc(C(F)(F)F)cc2c2cc(C(F)(F)F)ccc12 (stereo not given)", "class 1"),
    ("CC(C)OC(=O)c1ccc([N+](=O)[O-])cc1", "class 0"),
    ("C=CCn1c(C)nc2cc(Nc3nc(N4CCOCC4)nc4nc[nH]c34)ccc21", "class 1"),
    ("COc1ccc([C@@H]2[C@@H](Cl)C(=O)N2c2cc(OC)c(OC)c(OC)c2)cc1C", "class 1"),
    ("Cc1cc(Cl)c2ccc(N(C)C)cc2n1", "class 0"),
    ("N#Cc1nc(-c2cccc(Br)c2)cc(-c2ccc(Nc3nc(N4CCCCC4)nc(N4CCCCC4)n3)cc2)c1N", "class 1"),
    ("COc1c(B(O)O)cccc1-c1nc2ccc3[nH]ncc3c2c2c1CCCC2", "class 1"),
    ("CN(C)c1ccc(Nc2c3ccccc3nc3ccccc23)cc1", "class 1"),
    ("CCC(=O)NC(O)C(Cl)(Cl)C(C)Cl (stereo not given)", "class 0"),
    ("C=CCn1c(C)nc2cc(Nc3nc(Nc4ccc5nc(C)n(CC=C)c5c4)nc4ccccc34)ccc21", "class 0"),
    ("C#CC[C@@H]1C[C@]2(C)[C@H]3CC=C4[C@H]5[C@@H](C)[C@H](C)CC[C@]5(C(=O)NCCCN5CCN(CCCN)CC5)CC[C@@]4(C)[C@]3(C)CC[C@H]2C(C)(C)[C@H]1OC(C)=O", "class 0"),
    ("Brc1cccc(-n2ncc3c(Nc4ccc(-c5nnc(-c6ccccc6)o5)cc4)ncnc32)c1", "class 0"),
    ("COc1cc(-c2n/c(=C\\c3c(O)[nH]c4cc(Cl)ccc34)cc3c2=Nc2ccccc2-3)cc(OC)c1OC", "class 0"),
    ("CC(CN1CCN(CCOCCO)CC1)CN1c2ccccc2Sc2ccc(Cl)cc21 (stereo not given)", "class 1"),
    ("CCCCNCC(O)c1cc(-c2ccc(C(F)(F)F)cc2)nc(-c2ccc(C(F)(F)F)cc2)c1 (stereo not given)", "class 1"),
    ("COc1ccc(NC(=O)/C=C/c2ccc(Cl)c(Cl)c2)cn1", "class 1"),
    ("C/C(=N\\OC(=O)Nc1ccccc1)c1ccccc1", "class 1"),
    ("COc1cc(CN2CCO[C@H](COc3cccc(F)c3)C2)ccc1Cl", "class 1"),
    ("Cc1cc(C)cc(CCCCCCCCCCCCCCCCCC(=O)O)c1", "class 0"),
    ("CCCCC(CCc1ccccn1)C(=O)c1ccccc1 (stereo not given)", "class 0"),
    ("CCSc1ccc([C@@H]2[C@@H](O)C(=O)N2c2cc(OC)c(OC)c(OC)c2)cc1", "class 1"),
    ("CCOC(=O)c1sc2nc(-c3cc4ccccc4o3)cc(-c3ccc(Cl)cc3)c2c1N", "class 0"),
    ("Oc1ccc(-c2cnc(-c3ccccc3)[nH]2)c(O)c1", "class 0"),
    ("CC(C)(C)NC(=O)C(OC(=O)C1CCc2cc(F)ccc2O1)c1ccccc1Cl (stereo not given)", "class 0"),
    ("O=C(Nc1ccc(OS(=O)(=O)c2ccc(F)cc2)cc1)C12CC3CC(CC(C3)C1)C2", "class 1"),
    ("COc1ccc(-c2nc(-c3ccccc3OCc3ccccc3OC)nc(C)c2C(C)=O)cc1", "class 0"),
]

Numbers sourced from PubChem BioAssay (NCI).
